# measured-target: Cyclin-dependent kinase 2 (Homo sapiens)
# test-protocol: In vitro inhibition of Cyclin-dependent kinase 2
outcome-measure: log10 IC50 (log10 of the value in nM)
Scale type: logarithmic (base 10). Underlying IC50 unit: nM.

Please review the entries below; each comes with its answer.
In [3]: df
Out[3]:
                  compound_structure_string  value
0  CCc1cc(-c2ccc[nH]2)c2c3c(ccc(F)c13)NC2=O   1.86
1  CC(C)(N)CNc1cc(-c2ccc[nH]2)c2c3c(ccc(F)c13)NC2=O   1.81
2  CC(C)(C)OC(=O)NCCNc1cc(-c2ccc[nH]2)c2c3c(ccc(F)c13)NC2=O   3.74

Query block: Tell me its log10 IC50 given O=C1Nc2ccc(F)c3c(S(=O)(=O)CCO)cc(-c4ccc[nH]4)c1c23 as the entry.
Result block: 1.18

Query block: Output log10 IC50 of O=C1Nc2ccc(F)c3c(OCCO)cc(-c4ccc[nH]4)c1c23
Result block: 1.79
